Study target: DNA dC->dU-editing enzyme APOBEC-3F (Homo sapiens) (UniProt Q8IUX4)
Sequence (Q8IUX4 whole entry, looked up): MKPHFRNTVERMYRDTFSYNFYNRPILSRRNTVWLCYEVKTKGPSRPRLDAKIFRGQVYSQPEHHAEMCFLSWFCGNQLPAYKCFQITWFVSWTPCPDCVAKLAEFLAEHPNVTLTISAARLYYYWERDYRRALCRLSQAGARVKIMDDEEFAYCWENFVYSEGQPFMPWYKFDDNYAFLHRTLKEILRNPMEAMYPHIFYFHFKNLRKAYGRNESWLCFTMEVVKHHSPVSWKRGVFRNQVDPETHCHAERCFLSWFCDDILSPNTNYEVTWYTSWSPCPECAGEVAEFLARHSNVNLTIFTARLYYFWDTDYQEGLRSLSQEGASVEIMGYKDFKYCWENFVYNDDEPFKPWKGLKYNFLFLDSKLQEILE
Assay: qHTS for inhibitors of Vif-A3F interactions: Cherry picks counterscreen; note: nearly all actives have a fitted effect of over 65% in size
Condition description: HeLa A3F-eYFP/Vif cells, eYFP fluorescence, 24 h; series mostly up to 46.1 µM
The whole screen tested about 2,100 compounds, of which about 1,100 (52%) were called active. Roughly 29% stayed inconclusive and do not appear here. Calls come from the whole dose curve; as a rule, active = well fitted inhibition curve with a large enough effect; inconclusive = small, poorly fitted or top-dose-only effect; inactive = no such curve, though single readings can be large or run the other way. The set was probably picked from earlier hits. Some of the results follow.
Labels: active, inactive

{"Molecule": "CS(=O)(=O)Nc1ccc(C2=NN(S(C)(=O)=O)C(c3ccc4nccnc4c3)C2)cc1 (stereo not drawn)", "Label value": "inactive"}
{"Molecule": "Cc1ccc(N=C2NC(=O)/C(=C/c3cccn3C)S2)cc1", "Label value": "active"}
{"Molecule": "Cc1ccc(CN(C(=O)c2ccccc2F)c2ccccn2)o1", "Label value": "inactive"}
{"Molecule": "CC(C)CCNC(=O)c1ccc2c(c1)NC(=O)C(CS(=O)(=O)Cc1cccc(Br)c1)N2 (stereo not drawn)", "Label value": "inactive"}
{"Molecule": "O=C(N/N=C/C=C/c1ccco1)c1ccncc1", "Label value": "inactive"}
{"Molecule": "Cc1ccccc1-n1c(/C=C/c2c(C)n(C)c3ccccc23)nc2ccccc2c1=O", "Label value": "active"}
{"Molecule": "N#CCc1ccc(NC(=O)/C=C/c2ccc([N+](=O)[O-])o2)cc1", "Label value": "active"}
{"Molecule": "O=C1c2cccc3c([N+](=O)[O-])c(O)cc(c23)C(=O)N1Nc1ccccc1", "Label value": "active"}
{"Molecule": "CCOC(=O)Nc1cc2c(c(N)n1)N=C(c1ccccc1)CN2", "Label value": "active"}
{"Molecule": "CCS(=O)(=O)N1N=C(c2cccc(NS(C)(=O)=O)c2)CC1c1ccc(C)cc1 (stereo not drawn)", "Label value": "active"}
{"Molecule": "CCC(=Nc1ccccc1O)C1=C(O)CC(c2ccccc2)CC1=O (stereo not drawn)", "Label value": "inactive"}
{"Molecule": "N#Cc1c(C(F)(F)F)cc(-c2ccco2)nc1SCc1ccccn1", "Label value": "active"}
{"Molecule": "Nc1ccccc1C=C1Cc2ccccc2C1=O", "Label value": "active"}
{"Molecule": "O=C(N/N=C\\C=C\\c1ccc([N+](=O)[O-])o1)c1cccs1", "Label value": "active"}
{"Molecule": "Cc1ccccc1NC(=O)c1sc2nc3c(c(-c4ccco4)c2c1N)CCC3", "Label value": "inactive"}
{"Molecule": "Cc1c(C(=O)C(=O)N2CC=C(c3ccccc3)CC2)c2ccccc2n1C", "Label value": "active"}
{"Molecule": "Cc1noc(C)c1COc1ccc(C(=O)NNC(=O)c2ccccc2)cc1", "Label value": "active"}
{"Molecule": "N#Cc1c(-c2ccccc2)c(-c2ccccc2)nn(CC(=O)NNC(=O)Nc2ccccc2)c1=O", "Label value": "active"}
{"Molecule": "N#Cc1c(C(F)(F)F)cc(-c2ccccc2)nc1SCc1nc(N)nc(N2CCOCC2)n1", "Label value": "active"}
{"Molecule": "CCCc1nc2c(C)cc(Br)cn2c1Cc1ccccc1", "Label value": "inactive"}
{"Molecule": "COc1cc(N2CCCC2)c(OC)cc1/C=C(/C#N)c1ccc(F)cc1", "Label value": "active"}
{"Molecule": "Cc1noc(C)c1COc1ccc(C(=O)NNC(=O)c2ccccc2F)cc1", "Label value": "active"}
{"Molecule": "COc1cc(/C=C2\\SC(=Nc3cccnc3)NC2=O)cc(OC)c1OC", "Label value": "inactive"}
